The reported measurements were obtained from ChEMBL document CHEMBL4831522.

# TESTED_SYSTEM: Rhodesain (Trypanosoma brucei rhodesiense, UniProt Q95PM0)
# Sequence (Q95PM0 whole entry): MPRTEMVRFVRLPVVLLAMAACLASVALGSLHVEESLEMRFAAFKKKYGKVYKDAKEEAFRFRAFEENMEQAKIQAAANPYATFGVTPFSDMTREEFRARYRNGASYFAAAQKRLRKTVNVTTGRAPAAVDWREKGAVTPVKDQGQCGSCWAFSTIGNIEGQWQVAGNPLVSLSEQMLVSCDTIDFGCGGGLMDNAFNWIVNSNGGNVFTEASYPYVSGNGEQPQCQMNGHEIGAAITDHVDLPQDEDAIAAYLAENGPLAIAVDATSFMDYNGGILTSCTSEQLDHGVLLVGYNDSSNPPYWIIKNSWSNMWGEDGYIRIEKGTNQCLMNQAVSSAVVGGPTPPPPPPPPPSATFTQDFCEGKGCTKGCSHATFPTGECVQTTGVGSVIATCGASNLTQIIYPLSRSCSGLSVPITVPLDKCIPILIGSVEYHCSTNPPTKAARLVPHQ
# EXPERIMENT: Inhibition of recombinant Trypanosoma brucei rhodesiense MVAT4 rhodesain expressed in Pichia pastoris using Z-FR-AMC as substrate by fluorometry
RESULT_TYPE: IC50 (µM)
One number for each entry, in µM.

1. CC(C)C[C@H](NC(=O)[C@@H]1O[C@H]1C(=O)O)C(=O)NCCCCN=C(N)N: 0.0037

Parameter requested: IC50. Apply to each item below.
1. Oc1ccc(Nc2nc(NCc3ccccc3)c3ccccc3n2)cc1
2. Clc1ccc(Nc2nc(NCc3ccccc3)c3ccccc3n2)cc1
3. O=C(c1ccc(Nc2nc(NCc3ccccc3)c3ccccc3n2)cc1)N1CCOCC1

1: 23; 2: 33; 3: 22
